# methodSummary: yeast display, Sf9 membrane polyspecificity reagent, FACS + sequencing; frameworks hold sequencing errors
measuredAttribute: polyreactivity (PSR sort gate)

Example entries and their recorded answers appear below.
sequenceInput	polyreactivity (PSR sort gate)
QVQLVESGGGLVQAGGSLRLSCAASGSIFGTNAMGWYRQAPGKERELVAAISFSGGDTYYADSVKGRFTISRDNAKKTVYLQMNRLKPEDTAVYYCAAEVPDTDAYGYWGQGTQVTVSS	low polyreactivity
QVQLVESGGGLVQAGGSLRLSCAASGRTFSYNAIGWYRQAPGKERTNYADSVKGRFTISRDNAKNTVYLQMNSLKPEDTAVYYCAVEPYLSYPPTSIDNDYDYWGQGTQVTVSS	low polyreactivity
QVQLVESGGGVVQAGGSLRLSCAATGSTFWWYAMGWYRQAPGKERELVADITTGGSTNYADSVKGRFTISRDNAKNTVYLQMNSLKPEDTAVYYCNADGVTPYTWRLRYFKYHFDYWGQGTQVTVSW	low polyreactivity
QVQLVESGGGLVQAGGSLRLSCAASGRIIVPYVMGWYRLAPGKERELVAAISTSGTSTYYADSVKGRFTISRDNAKNTVYLQMNSLKPEDTAVYYCAKRSGARHRLMDYWGQGTQVTVSS	low polyreactivity
QVQLVETGGGLVQAGGSLRLSCAASGRTMPYYAMGWYRQAPGKERELVATISSRGGSTYYADSVKGRFTISRDNAKNTVYLQMNSLKPEDTAVYYCAARGNTPRTRRYGYWGQGTQVTVSS	high polyreactivity

Each sequence below has a recorded value; state its polyreactivity (PSR sort gate).
1. QVQLVESGGGLVQAGGSLRLSCAASGSIFTYYAMGWYRQAPGKERELVASISWGGGSTYYADSVKGRFTISRDNAKNSVYLQMNSLKPVDTAVYYCATDVYVDYFVGGEYWGQGTQVTVSS
2. QVQLVESGGGIVQAGGSLRLSCAASGSTFVTNVMGWYRQAPGKERELVAAISYSGGNTYYEDSVKGRFTISRDNANNTVYLHMNSLKPEDTAVYYCNAYRVVHPCEYDYWGQGTQVTVSS
3. QVQLVESRGRLDQAGGSLRLSCAAYARIFAVYAMGWYRQAPGKESEFVATITYNAGSTYYADSVKGRFTISRDNAKNTVNLQMNSLKPEDTAVYYCAVELDSEPAYEPWTEYDYWGQGTQVTVSS
4. QVQLVESGGGLVQAGGSLRLSCAASGYIFEVNAMGWYRQAPGKERELVATIDTSSGSTNYADSVKGRFTISRDNAKNTVDLQMNSLKPEDTAVYYCAADDETVFLQDDYWGQGTQVTVSS
5. QVQLVESGGGLVQAGGSLRLSCAASGSTFRYNAMGWYRQAPGKERELVAAISSGSSTNYADSVKGRFSISRDNAKNTVYLQMNSLKPEDTAVYYCAAQPGYYDDFYYWGQGTQVTVSS
6. QDQLVESGGGLVQAGGSLRLSCSASGRIFYYYTMGWYRQEPGKERELVAAISSGGSTNYADSVKGRFTISRDNAKNTVYLQMNSLKPEDTAVYYCNVELTTVGHWYYYRPGYDYWVQGTQVTVSS

# output
["low polyreactivity", "high polyreactivity", "low polyreactivity", "low polyreactivity", "low polyreactivity", "low polyreactivity"]

Each sequence below has a recorded value; state its polyreactivity (PSR sort gate).
1. QVQLVESGGGLVQAGGSLRLSCASSGRTFFQYAMGWYRQAPGKERELVAAIRWSDSTYYADSVKGRFTISRDNAKNTVYLQMNSLKPEDTAVYYCAAPRVSQYSTKKYDYWGQGTQVTVSS
2. QVQLVESGGGLVQAGGSLRLSCAASGRNFYYNAMGWYRQAPGKERELVAVISGRGGSTYYADSVKGRFTISRDNAKNTVYLQMNSLKPEDTAVYYCAAGYTRPWRFTYYYWGQGTQVTVSS
3. QVQLVESGGGLVQAGGSLRLSCAASGNTFRSYAMGWYRQAPGKERELVAAISSTGNTYYADSVKGRFTISRDNAKNTVYLQMNSLKPEDTAVYYCAASKWRRADYYYWGQGTQVTVSS
4. QVQLVESGGGLVQAGGSLRLSCAASGITFVRNAKGWYRPAPGTERELVAAISSGGSTYYADSVKGRFTISRDNAKNTVYLQMNSLKPEDTAVYYCAVLSSWRFSGYDYWGQGTQVTVSS
5. QVQLVESGGGLVQAGGSLRLSCAASGRTFSRYAMGWYRQAPGKERELVAAITWSGGDTYYADSVKGRFTISRDNAKNTVYLQMNSLKPEDTAVYYCAAEWGTVGYIRYYAIWSEYDYWGQGTQVTVSS
6. QVQLVESGGGLVQAGGSLRLSGAASGRTFRKYAMGWYRQAPGKERELVAAISWSGGSTYYANSVKGRFTISRDNAKNTVYLQMNSLKPEDTAVYYCAAVPVHTGSLYWGFTTGYDYWGQGTQVTVSS
7. QVQLVESGGGLVQAGGSLRLSCAASGYIYYYYAMGWYRQAPVKERELVAAITFSGGSTYYADSVKGRFTISRDNAKNTVYLQMNSLKPEDTAVYYCAKVELRDSALLGSDEYDYLGQGTQVTVSS

# output
1: low polyreactivity; 2: high polyreactivity; 3: high polyreactivity; 4: low polyreactivity; 5: low polyreactivity; 6: low polyreactivity; 7: low polyreactivity

Each sequence below has a recorded value; state its polyreactivity (PSR sort gate).
1. QVQLVESGGGLVQAGGSLRLSCAASGSIFVTYDMGWYRQAPGKERELVAGISGSGSTYYADSVKGRFTISRDNAKNTVYLQMNSLKPEDTAGYYCAAVWSRFLISYSTGWWFEYWGQGTQVTVSS
2. QVQLVESCGGLVQAGGSLRLSCAASGSTFYLNAMGWYRQAPGKERELVAAIDYRGGSTYYADSVKGRFTISRDYAKNTVYLQMNSLKPEDTAVYYCAKDRPGFLVGWGGGYDYWGQGTQVTVSS
3. QVQLVESGGGLVQAGGSLRLICAASGFTFWDYTMGWYIQAPGKERELVAAITRSGGRTYYADSVKGRFTISRDNENNTFYLQMNSLKTEDTAVYYCAAKIWSKDEKHDYWGQGTQVTVSS

# output
["low polyreactivity", "low polyreactivity", "high polyreactivity"]
